Assay: Pharmacokinetic study in rats, intragastric administration
Assay type: in vivo
Details: rat, plasma, po; Male SD rats, i.g., vehicle 5% Solutol, 30.00 mg/kg

test_smiles | Cmax / µg/mL
NS(=O)(=O)c1cc(NC(=O)Cc2ccccc2Cl)cc2nn(C(F)F)cc12 | 2.76

###

Test: Pharmacokinetic study in rats, intragastric administration
Assay type: in vivo
Conditions: rat, plasma, po; Male SD rats, i.g., vehicle 5% Solutol, 300.00 mg/kg
Procedure: SPF-grade male SD rats weighing 160 to 320 g were divided into 2 groups, with 3 rats per group [Source: Beijing Vital River Laboratory Animal Technology Co., Ltd., Certificate No.: 1103242011040898]. […] 110 µL of the supernatant was transferred to another 96-well deep-well plate, followed by addition of 110 µL of a mixture of methanol and water (1:3, v:v) containing 0.1% FA. The mixture was shaken for 10 minutes and analyzed using an LC-MS/MS system. […]

test_smiles | half-life / h
NS(=O)(=O)c1cc(NC(=O)Cc2ccccc2Cl)cc2nn(C(F)F)cc12 | 13.8

###

Test: Pharmacokinetic study in rats, intragastric administration
Type: in vivo
Settings: rat, plasma, po; Male SD rats, i.g., vehicle 5% Solutol, 30.00 mg/kg
Method: SPF-grade male SD rats weighing 160 to 320 g were divided into 2 groups, with 3 rats per group [Source: Beijing Vital River Laboratory Animal Technology Co., Ltd., Certificate No.: 1103242011040898]. […] 110 µL of the supernatant was transferred to another 96-well deep-well plate, followed by addition of 110 µL of a mixture of methanol and water (1:3, v:v) containing 0.1% FA. The mixture was shaken for 10 minutes and analyzed using an LC-MS/MS system. […]
outcome_measure: AUC(0-t) (ng·h/mL)

molecule | value_measured
NS(=O)(=O)c1cc(NC(=O)Cc2ccccc2Cl)cc2nn(C(F)F)cc12 [compound 1] | 10800

###

Assay: Pharmacokinetic study in rats, intragastric administration
Type: in vivo
Details: rat, plasma, po; Male SD rats, i.g., vehicle 5% Solutol, 30.00 mg/kg

test_smiles | units_label | Tmax
NS(=O)(=O)c1cc(NC(=O)Cc2ccccc2Cl)cc2nn(C(F)F)cc12 | min | 40.2

###

Assay: Pharmacokinetic study in rats, intragastric administration
Type: in vivo
Conditions: rat, plasma, po; Male SD rats, i.g., vehicle 5% Solutol, 300.00 mg/kg
outcome_measure: Cmax (ng/mL)

compound | value_measured
NS(=O)(=O)c1cc(NC(=O)Cc2ccccc2Cl)cc2nn(C(F)F)cc12 [compound 1] | 2360
